Just for reference, PubChem BioAssay (NCATS) is where these values come from.

Experiment: P-glycoprotein substrates identified in KB-3-1 adenocarcinoma cell line, qHTS therapeutic library screen (AID 1346986); further: nearly all actives have a fitted effect of over 60% in size
Details: KB-3-1 parental cells viability, CellTiter-Glo, 72 h; series mostly up to 44.5 µM
Protocol: The ATP-binding cassette transporters P-glycoprotein (P-gp) is known to limit brain penetration of many chemotherapy drugs. […] All cell lines were plated into 1536-well plates at 500 cells/well in 5 uL media. […] CellTiter-Glo reagent (Promega) was dispensed into the wells, incubated for 5 min and luminescence was read on a ViewLux instrument (Perkin-Elmer). […]
Inconclusive results are not listed. Active and inactive are the calls of the source. The call rests on the fitted dose curve; in most records, active means well fitted inhibition curve with a large enough effect; inconclusive means small, poorly fitted or top-dose-only effect; inactive means no such curve, though single readings can be large or run the other way.
Outcomes: active, inactive

[
  {
    "Compound": "C=C1C(=CC=C2CCCC3(C)[C@@H]([C@H](C)C=CC=CC(O)(CC)CC)CC[C@@H]23)C[C@@H](O)C[C@@H]1O (some centres undefined)",
    "Class name": "inactive"
  },
  {
    "Compound": "CC(C)(O)c1cc2nc(-c3cnc(N)nc3)nc(N3CCOCC3)c2s1",
    "Class name": "active"
  },
  {
    "Compound": "O=C(c1cncc(Br)c1)N1CCC(N2CCCC2)CC1",
    "Class name": "inactive"
  },
  {
    "Compound": "CCCn1c(=O)c2[nH]c(-c3cnn(Cc4cccc(C(F)(F)F)c4)c3)nc2n(CC)c1=O",
    "Class name": "inactive"
  },
  {
    "Compound": "c1cc(-c2cnn3cc(-c4ccc(OCCN5CCCCC5)cc4)cnc23)ccn1",
    "Class name": "active"
  },
  {
    "Compound": "CN1CCN(c2cc(C(=O)Nc3ccc4c(c3)-c3c(c(C(N)=O)nn3-c3ccc(F)cc3)CC4)c(Cl)cn2)CC1",
    "Class name": "active"
  },
  {
    "Compound": "CC(=O)OCCN1C(=O)c2c(C)nc3ccc(S(=O)(=O)N4CCOCC4)cc3c2C1=O",
    "Class name": "inactive"
  },
  {
    "Compound": "CCn1nnc2c(N3CCOCC3)nc(-c3ccc(NC(=O)Nc4ccc(C(=O)N5CCN(C)CC5)cc4)cc3)nc21",
    "Class name": "active"
  },
  {
    "Compound": "CNC(=O)c1ccc(N2C(=S)N(c3cnc(C#N)c(C(F)(F)F)c3)C(=O)C23CCC3)cc1F",
    "Class name": "inactive"
  },
  {
    "Compound": "C=CC(=O)Nc1cc2c(Nc3ccc(F)c(Cl)c3)ncnc2cc1C#CC(C)(C)N1CCN(C)CC1",
    "Class name": "active"
  },
  {
    "Compound": "CCOC(=O)C1=C(C)NC2=C(C(=O)CC(C)(C)C2)C1c1ccc(-c2ccccc2)cc1 (centres undefined)",
    "Class name": "inactive"
  },
  {
    "Compound": "Cc1cn2cc(C(=O)N(C)CCO)cc(N[C@@H]3CCOc4cccc(C)c43)c2n1",
    "Class name": "inactive"
  },
  {
    "Compound": "Clc1cccc(-c2nnnn2Cc2cccnc2)c1Cl",
    "Class name": "inactive"
  },
  {
    "Compound": "N#CCNC(=O)c1ccc(-c2ccnc(Nc3ccc(N4CCOCC4)cc3)n2)cc1",
    "Class name": "active"
  },
  {
    "Compound": "CN(C)CC(C)(C)CNc1nn2c(-c3ccccc3)nnc2cc1C1CCC1",
    "Class name": "inactive"
  },
  {
    "Compound": "O=C(Nc1nc2cccc(-c3ccc(CN4CCS(=O)(=O)CC4)cc3)n2n1)C1CC1",
    "Class name": "active"
  },
  {
    "Compound": "Cc1c(Cn2c(C)nc3c(C(=O)O)cc(N4CCOCC4)cc32)cccc1C(F)(F)F",
    "Class name": "inactive"
  },
  {
    "Compound": "O=C(O)c1ccc2c(c1)nc(Nc1cccc(Cl)c1)c1ccncc12",
    "Class name": "active"
  },
  {
    "Compound": "Cc1cc(Nc2cc(NC(=O)c3c(Cl)cccc3Cl)ccn2)nc(N)n1",
    "Class name": "active"
  }
]

---

The molecules listed here are annotated with their Z-AUC.
Test: qHTS drug screen for cell cycle checkpoint inhibitors in PARPi-resistant BRCA-mutant ovarian cancer cell lines. (AID 1963452)
Conditions: PEO1/OlaR viability, CellTiter-Glo luminescence, 96 h; measured here: PEO4 Z-AUC; stronger effect = lower value
From the text: Women's Malignancies Branch, Center for Cancer Research (CCR), National Cancer Institute (NCI), National Institutes of Health (NIH), Bethesda, MD Poly (ADP-ribose) polymerase inhibitors (PARPis) have changed the treatment paradigm in breast cancer gene (BRCA) - mutant high-grade serous ovarian carcinoma (HGSC). […] 6; Detection; Luminescence, PHERAstar (BMG Labtech) plate reader. […] 6. Luminescence readings were taken using PHERAstar (BMG Labtech). […]

[
  {
    "Smiles record": "CCN(CC)CCCCNc1ncc2cc(-c3cc(OC)cc(OC)c3)c(NC(=O)NC(C)(C)C)nc2n1",
    "Z-AUC": 0.00955
  },
  {
    "Smiles record": "O=C(Nc1ncc(-c2cc(C(F)F)nn2-c2c(Cl)cccc2Cl)s1)C1CC1",
    "Z-AUC": -1.31
  },
  {
    "Smiles record": "Cc1coc2c1C(=O)C(=O)c1c-2ccc2c1CCCC2(C)C",
    "Z-AUC": 0.949
  },
  {
    "Smiles record": "O=C(NCCCNc1nc(Nc2cccc(NC(=O)N3CCCC3)c2)ncc1I)c1cccs1",
    "Z-AUC": 0.426
  },
  {
    "Smiles record": "COc1cc(OC2CCN(C)CC2)ccc1Nc1ncc2c(n1)n(C1CCCC1)c(=O)n2C",
    "Z-AUC": 0.275
  }
]

---

Experiment: qHTS Screen of the MIPE 4.0 Collection Against Ewings Sarcoma (TC32) (AID 1259256); further: nearly all actives have a fitted effect of over 45% in size; further: potency means the concentration at half of the fitted maximal effect
Details: TC32 Ewing sarcoma viability, CellTiter-Glo, 48 h; series mostly up to 45.8 µM
Inconclusive results are not listed. Calls of active or inactive are those of the source. The call rests on the fitted dose curve; in most records, active means well fitted inhibition curve with a large enough effect; inconclusive means small, poorly fitted or top-dose-only effect; inactive means no such curve, though single readings can be large or run the other way.

[
  {
    "Molecule": "Nc1cccc(-c2cc3c(Oc4cccc(O)c4)ncnc3[nH]2)c1",
    "Potency": "2960 nM (active)"
  },
  {
    "Molecule": "Cc1c(C)n(Cc2ccc(-c3ccccc3C(=O)O)cc2)c2ccc(C(=O)N[C@@H](C)c3ccc([N+](=O)[O-])cc3)cc12",
    "Potency": "inactive"
  },
  {
    "Molecule": "CC(C)[C@H](C(=O)Nc1ccc(C(=O)NO)cc1)c1ccccc1",
    "Potency": "526 nM (active)"
  },
  {
    "Molecule": "COc1ccc(C(=O)CC2(O)C(=O)Nc3c(Cl)ccc(Cl)c32)cc1 (stereo not drawn)",
    "Potency": "1660 nM (active)"
  },
  {
    "Molecule": "O=C(NCCS(=O)(=O)c1ccc(C(F)(F)F)cn1)c1ccc(Cl)cc1",
    "Potency": "inactive"
  },
  {
    "Molecule": "C=C1C(=CC=C2CCC[C@]3(C)[C@@H]([C@H](C)C=C[C@H](C)C(C)C)CC[C@@H]23)C[C@@H](O)C[C@@H]1O",
    "Potency": "833 nM (active)"
  },
  {
    "Molecule": "CC(C)c1cc(-c2n[nH]c(=O)n2-c2ccc3c(ccn3C)c2)c(O)cc1O",
    "Potency": "52.6 nM (active)"
  },
  {
    "Molecule": "CN(C)CC(C)(C)CNc1nn2c(-c3ccccc3)nnc2cc1C1CCC1",
    "Potency": "469 nM (active)"
  },
  {
    "Molecule": "CCN(CC)CCNC(=O)c1ccc2nc(-c3ccccc3)c(-c3ccc(CN4CCC(n5c(=O)[nH]c6ccccc65)CC4)cc3)nc2c1",
    "Potency": "18700 nM (active)"
  },
  {
    "Molecule": "CC(=O)Nc1sc2c(c1-c1nc3ccccc3s1)CNC2",
    "Potency": "13200 nM (active)"
  },
  {
    "Molecule": "CC[C@H](CO)Nc1nc(NCc2ccccc2)c2ncn(C(C)C)c2n1",
    "Potency": "20900 nM (active)"
  },
  {
    "Molecule": "CC1(C)CC(=O)c2c(C(F)(F)F)nn(-c3ccc(C(N)=O)c(NC4CCC(OC(=O)CN)CC4)c3)c2C1 (stereo not drawn)",
    "Potency": "132 nM (active)"
  },
  {
    "Molecule": "CCCCCN(CCC12CC3CC(CC(C3)C1)C2)C(=O)NCCCc1ccncc1",
    "Potency": "14800 nM (active)"
  },
  {
    "Molecule": "Cc1cc(Nc2cc(N3CCN(C)CC3)nc(Sc3ccc(NC(=O)C4CC4)cc3)n2)n[nH]1",
    "Potency": "1180 nM (active)"
  },
  {
    "Molecule": "Cn1cc(-c2[nH]c3cc(NC(=O)[C@H](N)C4CCCCC4)cc4c3c2C=NNC4=O)cn1",
    "Potency": "372 nM (active)"
  },
  {
    "Molecule": "CCNC(=O)Nc1ccc2ncc(Nc3ccc(C)cc3)nc2n1",
    "Potency": "1320 nM (active)"
  },
  {
    "Molecule": "O=C(C=Cc1c(C(=O)O)[nH]c2cc(Cl)cc(Cl)c12)Nc1ccccc1",
    "Potency": "inactive"
  },
  {
    "Molecule": "O=C(C=Cc1cccnc1)NCCCCC1CCN(C(=O)c2ccccc2)CC1",
    "Potency": "4.2 nM (active)"
  },
  {
    "Molecule": "CC[C@@H]1C(=O)N(C)c2cnc(Nc3ccc(C(=O)NC4CCN(C)CC4)cc3OC)nc2N1C1CCCC1",
    "Potency": "46.9 nM (active)"
  },
  {
    "Molecule": "CCCCCCCCCC(=O)N[C@@H](Cc1c[nH]c2ccccc12)C(=O)N[C@H](CC(N)=O)C(=O)N[C@@H](CC(=O)O)C(=O)N[C@@H]1C(=O)NCC(=O)N[C@@H](CCCN)C(=O)N[C@@H](CC(=O)O)C(=O)N[C@H](C)C(=O)N[C@@H](CC(=O)O)C(=O)NCC(=O)N[C@H](CO)C(=O)N[C@@H]([C@@H](C)CC(=O)O)C(=O)N[C@@H](CC(=O)c2ccccc2N)C(=O)O[C@@H]1C",
    "Potency": "inactive"
  },
  {
    "Molecule": "Cc1cc(Nc2cc(CN3CCOCC3)c3nc(C)c(Cc4ccc(Cl)cc4F)n3n2)n[nH]1",
    "Potency": "3720 nM (active)"
  },
  {
    "Molecule": "CNc1nccc(-c2cccnc2Oc2cc(C(=O)Nc3cccc(C(F)(F)F)c3)ccc2C)n1",
    "Potency": "16600 nM (active)"
  },
  {
    "Molecule": "CCCNC(=O)Nc1ccc(Oc2ncnc3cc(OC)c(OC)cc23)cc1Cl",
    "Potency": "inactive"
  },
  {
    "Molecule": "COc1cc(Nc2ncc(F)c(Nc3ccc4c(n3)N(COP(=O)(O)O)C(=O)C(C)(C)O4)n2)cc(OC)c1OC",
    "Potency": "3320 nM (active)"
  },
  {
    "Molecule": "CC(=O)SC[C@@H](C)C(=O)N1CCC[C@H]1C(=O)N[C@@H](Cc1ccccc1)C(=O)O",
    "Potency": "inactive"
  },
  {
    "Molecule": "CC[C@@]1(O)C(=O)OCc2c1cc1n(c2=O)Cc2cc3cc(O)ccc3nc2-1",
    "Potency": "3.3 nM (active)"
  },
  {
    "Molecule": "CC(C)c1cnn2c(NCc3ccccc3)cc(N[C@@H](CO)[C@H](O)CO)nc12",
    "Potency": "296 nM (active)"
  },
  {
    "Molecule": "COc1cc2c(Nc3ccc(NC(=O)c4ccccc4)cc3)ncnc2cc1OCCCN1CCOCC1",
    "Potency": "3320 nM (active)"
  },
  {
    "Molecule": "COc1cc2c(Oc3ccc(NC(=O)C4(C(=O)Nc5ccc(F)cc5)CC4)cc3F)ccnc2cc1OCCCN1CCOCC1",
    "Potency": "1660 nM (active)"
  },
  {
    "Molecule": "COc1cccc(Nc2c(C(N)=O)cnc3c(C)cc(S(=O)(=O)c4cccc(C(=O)N(C)C)c4)cc23)c1",
    "Potency": "inactive"
  },
  {
    "Molecule": "Cc1nc2ccc(CN(C)c3ccc(C(=O)N[C@@H](CCC(=O)O)C(=O)O)s3)cc2c(=O)[nH]1",
    "Potency": "33.2 nM (active)"
  },
  {
    "Molecule": "CC1(C)O[C@@H]2C[C@@H]3[C@H]4C[C@@H](F)C5=CC(=O)C=C[C@]5(C)[C@@]4(F)[C@@H](O)C[C@]3(C)[C@]2(C(=O)CO)O1",
    "Potency": "inactive"
  },
  {
    "Molecule": "COC(=O)[C@]12CCC(C)(C)C[C@@H]1[C@@H]1C(=O)C=C3[C@@]4(C)C=C(C#N)C(=O)C(C)(C)[C@@H]4CC[C@@]3(C)[C@]1(C)CC2",
    "Potency": "118 nM (active)"
  }
]
